Test: HSPiP analysis: Hansen Solubility Sphere of the matrikine from solubility scores
Format: physicochemical
Parameters: unit not given here
Conditions: Hansen Solubility Parameter of the peptide, overall results summary
Peptide text beside a SMILES is read from it.
Criterion: δP meeting or surpassing 10. Met: TRUE. Not met: FALSE.

compound="CCCCCCCCCCCCCCCC(=O)N[C@@H](CC(C)C)C(=O)N[C@@H](CO)C(=O)N[C@H](C(=O)N[C@@H](CC(=O)O)C(=O)O)C(C)C [Pal-LSVD] (HELM PEPTIDE1{[CCCCCCCCCCCCCCCC(=O)[*:2]].L.S.V.D}$$$$V2.0)" class_name=TRUE
compound="CCCCCCCCCCCCCCCC(=O)N[C@@H](CCC(=O)O)C(=O)N[C@@H](CCCCN)C(=O)NCC(=O)N[C@@H](CC(=O)O)C(=O)O [Pal-EKGD] (HELM PEPTIDE1{[CCCCCCCCCCCCCCCC(=O)[*:2]].E.K.G.D}$$$$V2.0)" class_name=TRUE
compound="CCCCCCCCCCCCCCCC(=O)NCC(=O)N[C@@H](Cc1c[nH]cn1)C(=O)N[C@@H](CCCCN)C(=O)O [Pal-GHK, N-Palmitoyl-Gly-His-Lys] (HELM PEPTIDE1{[CCCCCCCCCCCCCCCC(=O)[*:2]].G.H.K}$$$$V2.0)" class_name=FALSE
compound="CCCCCCCCCCCCCCCC(=O)NCC(=O)N1CCC[C@H]1C(=O)N[C@@H](CCCCN)C(=O)NCC(=O)O [Pal-GPKG] (HELM PEPTIDE1{[CCCCCCCCCCCCCCCC(=O)[*:2]].G.P.K.G}$$$$V2.0)" class_name=TRUE
compound="CCCCCCCCCCCCCCCC(=O)N[C@@H](CCC(N)=O)C(=O)N[C@H](C(=O)N[C@@H](C)C(=O)N[C@H](C(=O)O)C(C)C)[C@@H](C)O [Pal-QTAV] (HELM PEPTIDE1{[CCCCCCCCCCCCCCCC(=O)[*:2]].Q.T.A.V}$$$$V2.0)" class_name=TRUE

====

Assay: HSPiP analysis: Hansen Solubility Sphere of the matrikine from solubility scores
Assay type: physicochemical
Conditions: in words; HSPiP fit of solubility scores
Peptide text beside a SMILES is read from it.
endpoint: δH value

compound="CCCCCCCCCCCCCCCC(=O)N[C@@H](CCC(=O)O)C(=O)N[C@@H](CCCCN)C(=O)NCC(=O)N[C@@H](CC(=O)O)C(=O)O [Pal-EKGD] (HELM PEPTIDE1{[CCCCCCCCCCCCCCCC(=O)[*:2]].E.K.G.D}$$$$V2.0)" endpoint="δH value" recorded_measurement=moderate
compound="CCCCCCCCCCCCCCCC(=O)NCC(=O)N[C@@H](Cc1c[nH]cn1)C(=O)N[C@@H](CCCCN)C(=O)O [Pal-GHK, N-Palmitoyl-Gly-His-Lys] (HELM PEPTIDE1{[CCCCCCCCCCCCCCCC(=O)[*:2]].G.H.K}$$$$V2.0)" endpoint="δH value" recorded_measurement=low
compound="CCCCCCCCCCCCCCCC(=O)N[C@@H](CCC(N)=O)C(=O)N[C@H](C(=O)N[C@@H](C)C(=O)N[C@H](C(=O)O)C(C)C)[C@@H](C)O [Pal-QTAV] (HELM PEPTIDE1{[CCCCCCCCCCCCCCCC(=O)[*:2]].Q.T.A.V}$$$$V2.0)" endpoint="δH value" recorded_measurement=low
compound="CCCCCCCCCCCCCCCC(=O)N[C@@H](CC(C)C)C(=O)N[C@@H](CO)C(=O)N[C@H](C(=O)N[C@@H](CC(=O)O)C(=O)O)C(C)C [Pal-LSVD] (HELM PEPTIDE1{[CCCCCCCCCCCCCCCC(=O)[*:2]].L.S.V.D}$$$$V2.0)" endpoint="δH value" recorded_measurement=low
compound="CCCCCCCCCCCCCCCC(=O)NCC(=O)N1CCC[C@H]1C(=O)N[C@@H](CCCCN)C(=O)NCC(=O)O [Pal-GPKG] (HELM PEPTIDE1{[CCCCCCCCCCCCCCCC(=O)[*:2]].G.P.K.G}$$$$V2.0)" endpoint="δH value" recorded_measurement=moderate
